target: T1, soluble monomeric FcγRIIIA (extracellular region joined to linker-AVITAG), allele not stated (human, UniProt P08637 17-208); test: ELISA
T1 construct: extracellular domain; also called FcRIIIA; CD16A; not shown: linker-AVITAG
T1 sequence (P08637 17-208): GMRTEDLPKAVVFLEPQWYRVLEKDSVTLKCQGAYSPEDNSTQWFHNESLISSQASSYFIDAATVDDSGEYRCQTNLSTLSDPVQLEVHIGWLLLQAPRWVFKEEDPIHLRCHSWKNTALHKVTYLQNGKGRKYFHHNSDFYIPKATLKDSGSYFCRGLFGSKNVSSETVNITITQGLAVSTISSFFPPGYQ
Consider the following binders; for each one, report its Binding to FcγRIIIA (ELISA).
Give bare numbers, in fold increase.

>>> result_value("IgG1 Fc mutant P244H, L358M, V379M, N384K, V397M (antibody) heavy: ASTKGPSVFPLAPSSKSTSGGTAALGCLVKDYFPEPVTVSWNSGALTSGVHTFPAVLQSSGLYSLSSVVTVPSSSLGTQTYICNVNHKPSNTKVDKKVEPKSCDKTHTCPPCPAPELLGGPSVFLFHPKPKDTLMISRTPEVTCVVVDVSHEDPEVKFNWYVDGVEVHNAKTKPREEQYNSTYRVVSVLTVLHQDWLNGKEYKCKVSNKALPAPIEKTISKAKGQPREPQVYTLPPSRDEMTKNQVSLTCLVKGFYPSDIAMEWESKGQPENNYKTTPPMLDSDGSFFLYSKLTVDKSRWQQGNVFSCSVMHEALHNHYTQKSLSLSPGK")
1.75

// switching to the query binder
Output measured Binding to FcγRIIIA (ELISA) for this item: IgG1 Fc mutant F275L, Q362H, N384K, P396L (antibody) heavy: ASTKGPSVFPLAPSSKSTSGGTAALGCLVKDYFPEPVTVSWNSGALTSGVHTFPAVLQSSGLYSLSSVVTVPSSSLGTQTYICNVNHKPSNTKVDKKVEPKSCDKTHTCPPCPAPELLGGPSVFLFPPKPKDTLMISRTPEVTCVVVDVSHEDPEVKLNWYVDGVEVHNAKTKPREEQYNSTYRVVSVLTVLHQDWLNGKEYKCKVSNKALPAPIEKTISKAKGQPREPQVYTLPPSRDELTKNHVSLTCLVKGFYPSDIAVEWESKGQPENNYKTTPLVLDSDGSFFLYSKLTVDKSRWQQGNVFSCSVMHEALHNHYTQKSLSLSPGK 2.2
